Cited source: ChEMBL document CHEMBL4190162

Hi there, I'd appreciate the recorded CC50 for every entry that follows.
# ASSAY PROCEDURE: Cytotoxicity against human HepG2 cells after 24 to 48 hrs in presence of galactose by trypan blue dye-based hemocytometric method
# Assay type: cell-based

# annotated cases, reported CC50 shown
• COCCNC(=O)COc1cc(C)nc2ccc(OC)cc12 = > 164 µM
• COc1ccc(NC(=O)COc2cc(C)nc3ccc(OC)cc23)cc1 = > 142 µM
• COc1cc(NC(=O)COc2cc(C)nc3ccc(OC)cc23)cc(OC)c1 = > 131 µM
• COc1ccc2nc(C)cc(OCC(=O)NCc3ccccc3)c2c1 = > 149 µM
• COc1ccc(NC(=O)COc2cc(C)nc3ccc(OC)cc23)c(OC)c1 = > 131 µM
• COc1cccc(NC(=O)COc2cc(C)nc3ccc(OC)cc23)c1 = 24.7 µM
• COc1ccc2nc(C)cc(OCC(=O)Nc3ccccc3OC)c2c1 = 19.6 µM
• COc1ccc2nc(C)cc(OCC(=O)NCc3ccc4c(c3)OCO4)c2c1 = 86.9 µM
• COc1ccccc1NC(=O)COc1cc(C)nc2ccc(Br)cc12 = > 125 µM
• c1ccc(Cn2cnc3c(-c4ccco4)nccc32)cc1 = > 25 µM

Hi, could you look up CC50 for each item in my list?
1. COc1ccc2nc(C)cc(OCC(=O)NCCCc3ccccc3)c2c1
2. CCCCCNC(=O)COc1cc(C)nc2ccc(OC)cc12
3. COc1ccccc1NC(=O)COc1cc(C)nc2ccc(C)cc12
4. COc1ccc2nc(C)cc(OCC(=O)Nc3cccc(Br)c3)c2c1
5. COc1ccc2nc(C)cc(OCC(=O)NCCc3ccc4c(c3)OCO4)c2c1

50.7 µM
106 µM
> 74 µM
> 125 µM
> 127 µM

// for each molecule below, give its CC50
1. CCCCCC[C@H]1C(=O)O[C@H](C)[C@H](NC(=O)c2cccc(NC=O)c2O)C(=O)O[C@@H](C)[C@@H]1OC(=O)CC(C)C [ANTIMYCIN A]
2. C#CCNC(=O)COc1cc(C)nc2ccc(OC)cc12

0.017 µM
> 176 µM

* * *

# Tested on: Mycobacterium tuberculosis H37Rv
# ASSAY PROCEDURE: Inhibition of Mycobacterium tuberculosis H37Rv cytochrome bc1 oxidase assessed as reduction in ATP level measured up to 24 hrs under anaerobic condition
The source made the active and inactive calls. No cut-off for these calls is given here.
READOUT LABEL: inhibition

As a guide, the following entries are already answered.
* COc1ccc2nc(C)cc(OCC(=O)NCCc3ccc(OC)c(OC)c3)c2c1 | Active
* COc1ccc2nc(C)cc(OCC(=O)Nc3ccccc3OC)c2c1 | Active
* COc1ccc2nc(C)cc(OCC(=O)Nc3ccc(OC)c(OC)c3)c2c1 | Active
* COc1ccc2nc(C)cc(OCC(=O)Nc3ccc(-c4ccccc4)cc3)c2c1 | Active
* COc1ccc(OC)c(CCNC(=O)COc2cc(C)nc3ccc(OC)cc23)c1 | Active
* COc1ccc2nc(C)cc(OCC(=O)Nc3ccccc3Cl)c2c1 | Active

List inhibition for every entry below, keeping the order given.
1. COc1ccccc1NC(=O)COc1cc(C)nc2ccc(Br)cc12
2. COc1ccc2nc(C)cc(OCC(=O)NCCc3ccccc3)c2c1
3. COc1ccc2nc(C)cc(OCC(=O)NCCCc3ccccc3)c2c1
4. COc1ccc2nc(C)cc(OCC(=O)Nc3ccc(Cl)cc3)c2c1

1. Active
2. Active
3. Active
4. Active

Endpoint output: inhibition of "COc1ccc2nc(C)cc(OCC(=O)NCc3ccccc3)c2c1" . Value?
Active
